- studyTarget: PAI-1 (Homo sapiens, UniProt P05121)
- Sequence (P05121 24-402): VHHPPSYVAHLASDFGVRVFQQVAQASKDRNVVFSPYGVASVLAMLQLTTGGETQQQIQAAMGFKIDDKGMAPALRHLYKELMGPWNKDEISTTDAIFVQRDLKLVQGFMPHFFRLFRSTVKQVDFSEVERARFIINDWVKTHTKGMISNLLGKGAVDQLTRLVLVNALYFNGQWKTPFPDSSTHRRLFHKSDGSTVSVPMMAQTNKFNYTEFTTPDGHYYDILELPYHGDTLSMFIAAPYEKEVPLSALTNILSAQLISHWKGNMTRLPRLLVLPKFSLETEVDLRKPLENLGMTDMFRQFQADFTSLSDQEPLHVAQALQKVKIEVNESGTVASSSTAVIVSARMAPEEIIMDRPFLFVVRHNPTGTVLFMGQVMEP
- experimentNotes: PAI-1 inhibition in the S2251 chromogenic substrate assay (PAI functional assay)
- Type: biochemical
- testConditions: 50 μM; Table 1, second part; read-out: INHIBITION OF PAI-1 (degree of inhibition)
observationType: inhibition at 50 µM (%)

1 = CN(C)CCCOc1ccc(/C=c2\[nH]c(=O)/c(=C/c3ccsc3)[nH]c2=O)cc1
2 = CN(C)CCCOc1ccc(/C=c2\[nH]c(=O)/c(=C/c3ccncc3)[nH]c2=O)cc1
3 = CN(C)CCCOc1ccc(/C=c2\[nH]c(=O)/c(=C/c3cccnc3)[nH]c2=O)cc1
-- ask Sort low-to-high on inhibition at 50 µM, please. Arrange the labels as the request states and list them.
-- reply 3, 2, 1
(3: 4%, 2: 8%, 1: 64%)

a = CN(C)CC(=O)NCc1ccc(/C=c2\[nH]c(=O)/c(=C/c3ccccc3Br)[nH]c2=O)cc1
b = O=c1[nH]/c(=C\c2cc(Cl)sc2Cl)c(=O)[nH]/c1=C\c1ccccc1
-- ask Which has the higher inhibition at 50 µM, a or b ? Please identify the chosen entry by its label.
-- reply b
(b: 88%, a: 58%)

P = O=c1[nH]/c(=C\c2ccc(OCCN3CCCC3)cc2)c(=O)[nH]/c1=C\c1ccccc1
Q = CN(C)CCCOc1ccc(/C=c2\[nH]c(=O)/c(=C/c3ccc(-n4ccnc4)cc3)[nH]c2=O)cc1
R = CC(=O)Nc1ccc(/C=c2\[nH]c(=O)/c(=C/c3ccc(OCCCN(C)C)cc3)[nH]c2=O)cc1
-- ask Put the items in order so that reported inhibition at 50 µM rises from first to last. Arrange the labels as the request states and list them.
-- reply Q, R, P

Source: patent US5891877A
